Exercise: state measured Inhibition of binding (%) for each of the binders provided.
systemName: H5 hemagglutinin (HA) of H5N1 influenza A virus, strain not stated (influenza A virus (H5N1), strain not stated)
protocolDescription: cross-inhibition of binding to HA; competitor: FLD20.19
Answer with a number only, understood to be in %.

Kindly note the recorded Inhibition of binding (%) for FLA5.10 (antibody, V domains shown) VH: QVQLVQSGAEVKEPGSAMKVSCKASGGTFSSDAFCWVRQAPGRGLEWMGGIIPVFQTANYGPNFQGRVTISADVYTTTLYLELSGLTSEDTAVYFCARSGDGYNYYFPLWGQGTLVTVSS VL: DIQMTQSPSTLSGSVGDRVTITCRASQNIGPWLAWYQQESGKAPKLLISRASILESGVPSRFSGTGTGTEFTLTISSLQPDDFATYYCQHYNAYWGTFGQGTKVEIN , which is 100

Kindly note the recorded Inhibition of binding (%) for FLD84 (antibody, V domains shown) VH: QVQLQESGPGLVKPSETLSLICAVSGASISSSYWSWIRQPPGKGLEWIGYIYYSGVTKYNPSLKSRVTLSVDTSKNHFSLKLSYVTAADTAVYYCARNLPDIAVVTAVQDATPVWFDPWGPGTLVSVSS VL: DIQLTQSPSSLSASVGDRVTITCRASQGIITYLNWYQQKPGKAPKLLIYATYSLQNGVPSRFSGSGSGTDFTLTISSLQPEDFATYYCQQSYSSLMFTFGQGTKLDIK , which is 100
